# System: SFV-Rluc
Structures can show the parent of a compound that is named as a salt.
Could you mark each record True if its SFV replication % left (surviving fraction, remaining percentage of SFV replication) falls strictly under 90%, and False if it equals or exceeds it?

The following compounds have reported results that may help.
- CCN(CC)C(=O)c1ccc(O)c(OC)c1 [Ethamivan]: True
- C[C@]12C=CC(=O)C=C1CC[C@@H]1[C@@H]2[C@@H](O)C[C@@]2(C)[C@H]1CC[C@]2(O)C(=O)CO [Prednisolone]: False
- O=C1CC(=O)NC(=O)N1 [Barbituric acid]: True
- O=C(OC[C@H]1OC(O)[C@@](O)(COC(=O)c2cc(O)c(O)c(O)c2)[C@@H]1O)c1cc(O)c(O)c(O)c1 (stereo partly shown) [Hamamelitannin]: True

Problem: Below 90% on SFV replication % left (surviving fraction, remaining percentage of SFV replication)? Entry O=C(O)/C=C\C(=O)O.O=C(O)/C=C\C(=O)O.OCCN1CCN(CCCN2c3ccccc3Sc3ccc(C(F)(F)F)cc32)CC1 [Fluphenatzinemaleate]
Solution: False

Problem: API: query returns whether the compound falls strictly under 90% in SFV replication % left (surviving fraction, remaining percentage of SFV replication). Query: C=CCC1(CC=C)C(=O)NC(=O)NC1=O [Allobarbital]
Solution: True

Problem: Determine whether this compound shows SFV replication % left (surviving fraction, remaining percentage of SFV replication) lower than 90% (ties excluded): CC(Cc1ccc(O)cc1)NCC(O)c1cc(O)cc(O)c1 (stereo not shown) [Fenoterol hydrobromide]
Solution: False

====

Measured SFV replication % left (surviving fraction, remaining percentage of SFV replication) (SFV-Rluc)

Example compounds with recorded SFV replication % left (surviving fraction, remaining percentage of SFV replication):
* CCN(CC)c1ccc2cc(C(=O)c3cccs3)c(=O)oc2c1 | 15.6%
* COc1cc(C(=O)O)cc(OC)c1OC | 34.0%
* NC[C@@H]1O[C@H](O[C@H]2[C@@H](O)[C@H](O[C@@H]3[C@@H](O)[C@H](N)C[C@H](N)[C@H]3O[C@H]3O[C@H](CN)[C@@H](O)[C@H](O)[C@H]3N)O[C@@H]2CO)[C@H](N)[C@@H](O)[C@@H]1O.O=S(=O)(O)O [Neomycin sulfate] | 99.6%
* OCCN1CCN(CCCN2c3ccccc3Sc3ccc(Cl)cc32)CC1 | 10.6%
* C#C[C@]1(O)CC[C@H]2[C@@H]3CCc4cc(O)ccc4[C@H]3CC[C@@]21C | 11.7%

Problem: Please provide the recorded SFV replication % left (surviving fraction, remaining percentage of SFV replication) for CC(Cc1ccc2c(c1)OCO2)NCC(O)c1ccc(O)c(O)c1.Cl (stereo not drawn) , tested on SFV-Rluc.
Solution: 128.4%

Problem: Param readout = SFV replication % left (surviving fraction, remaining percentage of SFV replication); param system = SFV-Rluc; param query = `CCC1(c2ccccc2)C(=O)NCNC1=O` ; response: value
Solution: 127.1%

Problem: For the record Cc1ccc(C(=O)NS(=O)(=O)c2ccc(N)cc2)cc1C [N-Sulfanilyl-3,4-xylamide] , what value of SFV replication % left (surviving fraction, remaining percentage of SFV replication) is listed for SFV-Rluc?
Solution: 72.0%

====

# Tested on: SFV-Rluc
Structures can show the parent of a compound that is named as a salt.
// reported SFV replication % left (surviving fraction, remaining percentage of SFV replication) per item
Your answer should be a plain number; it is taken to be in %.

Known results for molecules:
- Cc1ncc(CO)c(CO)c1O [Pyridoxine hydrochloride]: 100.9
- COc1ccc(CN(CCN(C)C)c2ccccn2)cc1.O=C(O)/C=C\C(=O)O: 73.7
- CCCCNC(=O)NS(=O)(=O)c1ccc(N)cc1 [1-Butyl-3-sulfanilylurea [carbutamide]]: 83.9
- CCCCC1C(=O)N(c2ccccc2)N(c2ccccc2)C1=O: 96.7

Problem: Lab note: need SFV replication % left (surviving fraction, remaining percentage of SFV replication) for `Cc1nnc2n1-c1ccc(Cl)cc1C(c1ccccc1Cl)=NC2` on SFV-Rluc, anyone have it?
Solution: 76.5

Problem: Form entry - test system: SFV-Rluc; read-out: SFV replication % left (surviving fraction, remaining percentage of SFV replication); molecule: `CCn1cc(C(=O)O)c(=O)c2ccc(C)nc21`
Solution: 80.4

Problem: What SFV replication % left (surviving fraction, remaining percentage of SFV replication) appears in the records for this molecule with SFV-Rluc? `COc1cc(C(=O)O)ccc1O`
Solution: 53.4

Problem: Enter reported SFV replication % left (surviving fraction, remaining percentage of SFV replication) observed with SFV-Rluc for CCC1(c2ccccc2)C(=O)NC(=O)NC1=O [Phenobarbital sodium]
Solution: 88.1

Problem: So what SFV replication % left (surviving fraction, remaining percentage of SFV replication) did `N[C@@H](Cc1ccc(O)c(O)c1)C(=O)O.N[C@@H](Cc1ccc(O)c(O)c1)C(=O)O` get with SFV-Rluc?
Solution: 43.6

Problem: Given the entry CNCCC=C1c2ccccc2CCc2ccccc21 [Nortriptyline hydrochloride] , what SFV replication % left (surviving fraction, remaining percentage of SFV replication) was observed with SFV-Rluc?
Solution: 5.3

Problem: Provide value of SFV replication % left (surviving fraction, remaining percentage of SFV replication) for this record tested with SFV-Rluc: N[C@@H]1C[C@H]1c1ccccc1.N[C@H]1C[C@@H]1c1ccccc1.O=S(=O)(O)O [Tranylcypromine sulfate]
Solution: 94.8

Problem: What is its SFV replication % left (surviving fraction, remaining percentage of SFV replication) for SFV-Rluc? Entry: CCCCOc1cc(C(=O)NCCN(CC)CC)c2ccccc2n1 [Dibucaine hydrochloride]
Solution: 77.8

====

Below are compounds with their SFV replication % left (surviving fraction, remaining percentage of SFV replication) as measured on SFV-Rluc.
Structures can show the parent of a compound that is named as a salt.
Output spec: scalar in %, unitless text.

These recorded examples may help you get a feel for the data.
- Cc1nc(NS(=O)(=O)c2ccc(N)cc2)oc1C: 83.0
- Cc1ncc(CO)c(CO)c1O.Cl: 100.9
- OCCOCCN1CCN(C(c2ccccc2)c2ccc(Cl)cc2)CC1 (stereo not shown) [Hydroxyzine hydrochloride]: 98.3

Below: the item to evaluate.
Problem: Requested field: SFV replication % left (surviving fraction, remaining percentage of SFV replication). Item: Cn1c(=O)c2c(ncn2CC(O)CO)n(C)c1=O (stereo not shown) [7-(2,3-Dihydroxypropyl)theophylline]
Solution: 100.1
